The following compounds are shown together with reported TGI values.
# Test system: U251 CNS
# Experimental protocol: NCI tumour cell line growth inhibition, 48 h
Property label: TGI

                                    compound  target_or_test_system  property_label     result
 0  O=C(N=C1SCCN1C(=O)C(C(F)(F)F)C(F)(F)F)C(C(F)(F)F)C(F)(F)F               U251 CNS             TGI   > 100 µM
 1     CC(C)c1ccc(/C(C(=O)O)=C(\O)C(=O)O)cc1               U251 CNS             TGI   > 100 µM
 2  COC(=O)C(C)(N=Cc1ccccc1)c1ccccc1 (centres undefined)               U251 CNS             TGI   > 100 µM
 3   O=C1O/C(=C(\Br)c2cccc3ccccc23)c2ccccc21               U251 CNS             TGI   > 100 µM
 4  Clc1ccc(Cc2nc3ccc(CCN4CCN(c5ccccc5)CC4)cc3[nH]2)cc1               U251 CNS             TGI    26.5 µM
 5  O=c1c(SSc2coc3cc(F)ccc3c2=O)coc2cc(F)ccc12               U251 CNS             TGI      79 µM
 6  COC(=O)C1=C(C)NC2(O)C=CC(=O)C3C(=O)N(c4ccccc4)C(=O)C132 (centres undefined)               U251 CNS             TGI   > 100 µM
 7  COc1ccc(S(=O)(=O)O)cc1-n1nc(C(=O)Nc2ccccc2)n[n+]1-c1cc(S(=O)(=O)[O-])ccc1OC               U251 CNS             TGI   > 100 µM
 8        Cc1ccsc1/C=N/Nc1cc(C)c2cccc(C)c2n1               U251 CNS             TGI   > 100 µM
 9  O=C(Nc1ccc(Cl)cc1)c1ccc(NC2=C(Cl)C(=O)N(Cc3ccccc3)C2=O)cc1               U251 CNS             TGI    20.4 µM
10  CC(=O)OC1CC2C(C)(C)C(=O)C=C[C@]2(C)C2CCC3(C)C(c4ccoc4)C(=O)[C@H]4O[C@]43[C@]12C (some centres undefined)               U251 CNS             TGI    32.9 µM
11      COC1=C(N=[N+]=[N-])C(=O)c2ncccc2C1=O               U251 CNS             TGI    27.7 µM
12            Cc1cc(C)c(C[N+](C)(C)C)c(C)c1C               U251 CNS             TGI    34.7 µM
13  C(CCC[Te][Te]CCCCCCOC1CCCCO1)CCOC1CCCCO1 (centres undefined)               U251 CNS             TGI    24.5 µM
14               CN1NC2(CCCCC2)ON=C1c1ccccc1               U251 CNS             TGI   > 100 µM
15  O=C(NCCC(F)(F)C(F)(F)C(F)(F)C(F)(F)F)NC1OC(CO)C(O)C(O)C1O (centres undefined)               U251 CNS             TGI   > 100 µM
16  OCC1OC(n2ccc3c(NO)ncnc32)C(O)C1O (centres undefined)               U251 CNS             TGI  > 20.2 µM
17  Cc1cc(CNC(=O)OCc2ccccc2)c(C)c2c1Oc1ccccc1O2               U251 CNS             TGI  > 67.3 µM
18  O=C(NCCCNc1cc(-c2cn(-c3ccccc3)nc2-c2cccc(O)c2)ccn1)c1ccccc1               U251 CNS             TGI      21 µM
19    O=[N+]([O-])/C(C(Cl)=C(Cl)Cl)=C1\NCCO1               U251 CNS             TGI   > 100 µM
20    CCOc1ccc(/C=C(\Cl)c2ccc(OC)c(OC)c2)cc1               U251 CNS             TGI   > 100 µM
21                         Nc1ccc2c(c1)NCCN2               U251 CNS             TGI   > 100 µM
22  CCOC(=O)/C(=C\c1ccc(N(C)C)cc1)S(=O)(=O)C(F)(F)C(F)(F)C(F)(F)C(F)(F)F               U251 CNS             TGI   > 100 µM
23  CC(=O)OCC1OC(n2cc(F)c(=O)[nH]c2=O)C(N)C(OC(C)=O)C1OC(C)=O (centres undefined)               U251 CNS             TGI   > 100 µM
24  O=C1C=C(Br)C(=O)C12CCc1ccccc12 (centres undefined)               U251 CNS             TGI    41.8 µM
25  CN1c2ccccc2N(C)C2C1N(C)c1ccccc1N2C (centres undefined)               U251 CNS             TGI   > 100 µM
26  O=[N+]([O-])c1ccc(N/N=C/c2c(O)ccc3ccccc23)nc1               U251 CNS             TGI   > 100 µM
27  Cc1ccc(OCC2OC(n3cnc4nc(Cl)nc(Cl)c43)CC2Oc2ccc(C)cc2)cc1 (centres undefined)               U251 CNS             TGI    55.5 µM
28  ClC(Cl)c1nc(-c2cccnc2)n2nc(-c3ccccc3)cc2n1               U251 CNS             TGI    5.11 µM
29  NC1CCN(c2nc(Nc3cccc(C(F)(F)F)c3)c3c(=O)[nH]ccc3n2)CC1               U251 CNS             TGI    3.55 µM
30  O=C(Nc1ccc(F)cc1)c1c(NC(=O)C(F)(F)F)sc2c1CCCCC2               U251 CNS             TGI   > 100 µM
31  CN1C(=S)C(c2ccccc2)Sc2ccccc21 (centres undefined)               U251 CNS             TGI   > 100 µM
32  CN(C)CCCN1c2nc3ccccc3cc2Sc2cc3ccccc3nc21               U251 CNS             TGI    3.08 µM
33               O=c1cc2ccccc2nn1Cc1ccccc1Cl               U251 CNS             TGI   > 100 µM
34  O=C(Nc1nc2ccccc2n1Cc1ccccc1)NC12CC3CC(CC(C3)C1)C2               U251 CNS             TGI   > 100 µM
35  COc1cc2c3c(n(CCCNCCN)c(=O)c2cc1OC)-c1cc2c(cc1C3=O)OCO2               U251 CNS             TGI   0.533 µM
36                COc1ccc(C(N)=O)cc1N=NN(C)C               U251 CNS             TGI   > 100 µM
37  CCOC(=O)C(=Cc1ccccc1[N+](=O)[O-])C(=O)OCC               U251 CNS             TGI    13.1 µM
38  Cc1ccc(N=Nc2c(O)ccc3cc(S(=O)(=O)O)ccc23)c(C)c1               U251 CNS             TGI   > 100 µM
39           CC1(C)N=C(C(N)=O)c2ncn(CCO)c2N1               U251 CNS             TGI   > 100 µM
40              COc1cc2noc(-c3ccccc3)c2cc1OC               U251 CNS             TGI   > 100 µM
41  CC/C=C\C[C@H](O)C/C=C1/C(=O)C=C[C@@H]1C/C=C\CCCC(=O)N(C)C               U251 CNS             TGI    3.91 µM
42  COc1cccc(-c2ccc3c4c2O[C@H]2c5[nH]c6ccccc6c5C[C@@]5(O)[C@@H](C3)N(CC3CC3)CC[C@]425)c1               U251 CNS             TGI    3.15 µM
43  Cn1c(C(C#N)c2nc(Cl)ncc2Br)nc2ccccc21 (centres undefined)               U251 CNS             TGI   > 100 µM

Data origin, for the record: PubChem BioAssay (NCI)
